target: the molecule itself; assay: SEC; Superose 6 Increase 10/300 GL; 50 mM Tris-HCl (pH 8.0), 300 mM NaCl, 10 mM MgCl2; oligomeric state calculated from elution volumes of proteins of known size
measuredQuantity: stoichiometry N
Lab note: write the figure by itself, no unit.

Exercise: # query: stoichiometry N of entry KpUGP E69D (enzyme, UDP-glucose pyrophosphorylase (galU gene product) of K. pneumoniae DSM 30104; mutant of Strep-KpUGP; tag as in m1; no cleavage described) MAALNSKVRKAVIPVAGLGTRMLPATKAIPKEMLPLVDKPLIQYVVNECIAAGITEIVLVTHSSKNSIDNHFDTSFELEAMLEKRVKRQLLEEVQSICPPHVTIMQVRQGLAKGLGHAVLCAHPVVGDEPVAVILPDVILDEYESDLSRDNLAEMISRFDETGASQIMVEPVEDVTAYGVVDCKGESLKPGESVPMVGVVEKPKADVAPSNLAVVGRYVLSADIWPLLAKTPPGAGDEIQLTDAIDMLIEKETVEAYHMKGKSHDCGNKLGYMQAFVEYGIRHKTLGDDFKAWLETAVAK
Key: 4.6

Exercise: Next: KpUGP K65A (enzyme, UDP-glucose pyrophosphorylase (galU gene product) of K. pneumoniae DSM 30104; mutant of Strep-KpUGP; tag as in m1; no cleavage described) MAALNSKVRKAVIPVAGLGTRMLPATKAIPKEMLPLVDKPLIQYVVNECIAAGITEIVLVTHSSANSIENHFDTSFELEAMLEKRVKRQLLEEVQSICPPHVTIMQVRQGLAKGLGHAVLCAHPVVGDEPVAVILPDVILDEYESDLSRDNLAEMISRFDETGASQIMVEPVEDVTAYGVVDCKGESLKPGESVPMVGVVEKPKADVAPSNLAVVGRYVLSADIWPLLAKTPPGAGDEIQLTDAIDMLIEKETVEAYHMKGKSHDCGNKLGYMQAFVEYGIRHKTLGDDFKAWLETAVAK
Key: 2

meta.source: paper PMC11796359
